Known growth of a selection of compounds
system: OVCAR-8 ovarian; assay: NCI-60 one-dose screen, 48 h (100 = growth as untreated, 0 = no growth, -100 = all killed); conditions: 10 µM unless noted
This is part of a sample that, as a whole, favours compounds with a hit. Of some 83,000 tested, about 20% had one in any assay.
Just the number in %, nothing appended.

Answered cases to consult:
compound=COc1cc2c(cc1OCCCCn1c(-c3cc(=O)c4ccccc4o3)nc3ccccc31)N=C[C@@H]1CCCN1C2=O endpoint_result=106
compound="CC1=NN2C(=NC3=C(CCC/C3=C\\c3ccc(Cl)cc3)C2c2ccc(Cl)cc2)S1 (stereo not given)" endpoint_result=90.2
compound="COc1cc(C2C=C(C)N=C3SC=C(C)N32)cc(OC)c1OC (stereo not given)" endpoint_result=9.1
compound="Clc1ccc2c(c1)NC1(CCSc3ccccc31)n1nccc1-2 (stereo not given)" endpoint_result=100
compound=C=C1C(=O)O[C@H]2[C@H]1CC/C(COC(=O)NCCc1cccc(OC)c1)=C\CC[C@@]1(C)O[C@@H]21 endpoint_result=17.4
compound=COc1ccc(C(=O)c2cc(OC)c(OC)c(OC)c2)cc1/C=C/C(=O)c1ccc(OC)c(OC)c1 endpoint_result=26.1
compound="Cc1ccc2c(c1)C(C)Cc1c(N(C)C)ncnc1N2C (stereo not given)" endpoint_result=51
compound="CCCCOc1nc2c(C)cccc2cc1C1CNC(=O)c2ccccc2N1 (stereo not given)" endpoint_result=81.2
compound=Cc1oc2nc[nH]c(=O)c2c1C(=O)/C=C/c1ccc(Cl)cc1 endpoint_result=15.8

Could you now consider this next compound?
growth measured on COc1ccc(C(=O)/C=C/c2cccc([N+](=O)[O-])c2)c(OC)c1 = 18.2

---

tested on: NCI-H460 lung; assay: NCI-60 one-dose screen, 48 h (100 = growth as untreated, 0 = no growth, -100 = all killed); conditions: 10 µM unless noted
About 83,000 compounds went through this panel and 20% of them were active in at least one assay; those are over-represented in the sample as a whole. Activity calls are given as the source filed them. The calls were made as follows: active = growth percent below 10; inactive = the rest.
Known growth of a selection of compounds

Answered cases to consult:
compound=O=C(CNc1ccc(Cl)cc1)Nc1ccc(-c2nc3ccccc3s2)cc1 recorded_metric=growth endpoint_result="87.1% (inactive)"
compound=Nc1c(C(=O)Nc2cccc(Cl)c2Cl)sc2nc3c(cc12)C(=O)CCC3 recorded_metric=growth endpoint_result="20% (inactive)"
compound=CCN(CC)CCC(=O)c1cccc2ccccc12 recorded_metric=growth endpoint_result="110% (inactive)"
compound=COc1cc2nc(N3CCC[C@@H](NC4=CC(=O)c5ccccc5C4=O)C3)nc(N)c2cc1OC recorded_metric=growth endpoint_result="-72.9% (active)"

growth measured on Cn1c(C(N)=O)cc2c1-c1nc(NC3CCCCC3)ncc1CCC2 = 94.3% (inactive)

growth measured on CC1=NN2C(=NC3=C(CCC/C3=C\c3ccc(Cl)cc3)C2c2ccc(Cl)cc2)S1 (stereo unspecified) = 101% (inactive)

growth measured on CNC(C)=O = 106% (inactive)

growth measured on CSc1ccccc1C#C/C=C\C#Cc1ccccc1N1CCCCC1=O = 93.3% (inactive)

growth measured on COC12CC(=O)C(C(C)=O)=C(O)C1(C)c1c(O)c(C)c(O)c(C(C)=O)c1O2 (stereo unspecified) = 55.1% (inactive)

growth measured on C/C(=N\NC(=O)CC#N)c1cc2cc(Cl)ccc2o1 = 94.2% (inactive)

growth measured on C#CCN1C(=O)/C(=c2\sc3n(c2=O)C2C(NN=3)N(CC)C(=O)N2CC)c2ccccc21 (stereo unspecified) = 5.2% (active)
